targetOrSystem: PI3Kδ (p110δ/p85α) Recombinant Human Protein (Homo sapiens (Human), UniProt O00329)
Sequence (O00329 whole entry): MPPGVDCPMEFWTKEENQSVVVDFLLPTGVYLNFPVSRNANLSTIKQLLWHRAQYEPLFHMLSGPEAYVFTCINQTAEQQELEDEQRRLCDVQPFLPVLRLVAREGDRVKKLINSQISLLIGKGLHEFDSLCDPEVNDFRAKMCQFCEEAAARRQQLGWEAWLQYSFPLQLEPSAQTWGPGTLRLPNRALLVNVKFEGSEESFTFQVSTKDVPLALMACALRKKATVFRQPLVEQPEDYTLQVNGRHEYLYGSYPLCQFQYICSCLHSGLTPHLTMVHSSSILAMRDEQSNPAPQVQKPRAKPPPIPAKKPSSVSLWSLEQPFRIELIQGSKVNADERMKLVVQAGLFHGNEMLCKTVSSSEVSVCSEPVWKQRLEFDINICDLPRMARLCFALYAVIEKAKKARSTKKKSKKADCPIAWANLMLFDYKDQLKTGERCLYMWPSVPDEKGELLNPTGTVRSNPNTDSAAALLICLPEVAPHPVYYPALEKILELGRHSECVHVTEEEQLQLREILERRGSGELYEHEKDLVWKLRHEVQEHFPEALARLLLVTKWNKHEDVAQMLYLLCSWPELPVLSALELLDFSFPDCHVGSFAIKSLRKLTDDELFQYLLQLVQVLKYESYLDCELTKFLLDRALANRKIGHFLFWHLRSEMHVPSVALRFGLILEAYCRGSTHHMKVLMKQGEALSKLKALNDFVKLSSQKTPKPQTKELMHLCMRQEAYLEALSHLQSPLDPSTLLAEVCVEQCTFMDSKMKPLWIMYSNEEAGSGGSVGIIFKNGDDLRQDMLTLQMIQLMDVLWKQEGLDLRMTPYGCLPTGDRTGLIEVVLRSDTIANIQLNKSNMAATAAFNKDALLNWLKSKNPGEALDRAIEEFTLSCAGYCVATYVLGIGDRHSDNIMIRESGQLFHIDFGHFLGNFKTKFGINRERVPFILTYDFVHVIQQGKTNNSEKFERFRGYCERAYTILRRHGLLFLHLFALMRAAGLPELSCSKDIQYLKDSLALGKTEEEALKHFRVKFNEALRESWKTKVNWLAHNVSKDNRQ
Sequence (P27986 whole entry partner): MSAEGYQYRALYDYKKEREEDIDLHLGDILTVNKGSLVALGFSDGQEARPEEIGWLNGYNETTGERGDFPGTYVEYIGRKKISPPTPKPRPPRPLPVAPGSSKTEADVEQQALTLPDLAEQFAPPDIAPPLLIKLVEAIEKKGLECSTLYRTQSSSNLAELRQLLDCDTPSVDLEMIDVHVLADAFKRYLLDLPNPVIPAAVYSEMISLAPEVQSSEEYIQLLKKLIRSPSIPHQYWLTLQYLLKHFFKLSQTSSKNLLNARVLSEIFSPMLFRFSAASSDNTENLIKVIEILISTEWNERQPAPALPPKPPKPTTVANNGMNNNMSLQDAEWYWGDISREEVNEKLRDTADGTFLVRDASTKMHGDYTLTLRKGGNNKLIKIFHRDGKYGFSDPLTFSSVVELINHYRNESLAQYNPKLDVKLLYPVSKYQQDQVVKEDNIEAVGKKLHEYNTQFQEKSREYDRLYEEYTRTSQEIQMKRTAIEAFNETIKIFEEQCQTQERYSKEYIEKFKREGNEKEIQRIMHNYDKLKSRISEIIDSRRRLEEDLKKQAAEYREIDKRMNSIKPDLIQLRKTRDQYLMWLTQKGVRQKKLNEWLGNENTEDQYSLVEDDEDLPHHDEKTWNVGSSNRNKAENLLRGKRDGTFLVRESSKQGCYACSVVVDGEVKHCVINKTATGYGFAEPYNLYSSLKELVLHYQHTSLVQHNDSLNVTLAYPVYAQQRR
experimentalProtocol: PI3Kδ scintillation proximity assay
Format: biochemical
testParameters: 20 μM PIP2, 2 μM ATP, 3.4 nM PI3Kδ; read-out: P13Kδ IC50
Description: PI3Kδ Scintillation Proximity Assay [γ-^33P]ATP (10 mCi/mL) and Wheat Germ Agglutinin (WGA) YSi SPA Scintillation Beads was purchased from Perkin-Elmer (Waltham, Mass.). […] PI3Kδ (p110δ/p85α) Recombinant Human Protein was purchased from Eurofins (St Charles, Mo.). ATP, MgCl2, DTT, EDTA, MOPS and CHAPS were purchased from SigmaAldrich (St. Louis, Mo.). The kinase reaction was conducted in polystyrene 384-well Greiner Bio-one white plate from Thermo Fisher Scientific in a final volume of 25 μL. […]
Reported IC50 values for a set of compounds

- Cc1ccc(C(O)(C(N)=O)C(F)(F)F)cc1-c1cnc2c(N)nc(C(C)(C)O)cn12 (single isomer, unassigned): < 100 nM
- Cc1ncc(-c2cn3c(-c4cc(C(O)(CO)C(F)(F)F)ccc4C)cnc3c(N)n2)o1 (single isomer, unassigned): < 100 nM
- Cc1ccc(C(C)(O)C(F)F)cc1-c1cnc2c(N)nc(-c3c[nH]nc3C)cn12 (stereo not shown): < 100 nM

Now turn to the next compound.
Return reported IC50; argument: Cc1ccc(C(O)(C(N)=O)C(F)(F)F)cc1-c1cnc2c(N)nc(C(=O)NC34CCC(O)(CC3)C4)cn12 (single isomer, unassigned)
100 to 500 nM

Data origin: patent US11225486B2
